# methodDescription: soluble on expression in E. coli; label from the status in PepcDB or PDB records
measurementName: soluble on expression in E. coli

Some sequences with known soluble on expression in E. coli results, for comparison:
INSERT INTO results (sequencecontent, reading) VALUES
  ('MKKIATATIATAGIATFAFAHHDAQAAEQNNDGYNPNDPYSYSYTYTIDAEGNYHYTWKGNWSPDRVNTSYNYNNYNNYNYYGYNNYSNYNNYSNYNNYNNYQSNNTQSQRTTQPTGGLGASYSTSSSNVHVTTTSAPSSNGVSLSNARSASGNLYTSGQCTYYVFDRVGGKIGSTWGNANNWANAAARSGYTVNNSPAKGAILQTSQGAYGHVAYVEGVNSNGSIRVSEMNYGHGAGVVTSRTISASQAASYNYIHLEHHHHHH', 'not soluble'),
  ('MTAPGSVPLTVIGGFWGAGKTTLLNYLLKVQHSERVLVMVNDFGSINIDAELLDQGRHDRPGVVRLQNGCVCCSIGGDLMQAFLQVMSMPDRPDRIIVEASGVADPTRIAQIGRVSGGLSDEGVITLVDASAVRALAADKYVGDIVRQQILSADIVLLNKLDLSSDAEIVETRAWLRDLAPRTRVVSCIHGEVDAVSVLGIGAGKVAPDTAGGPVDVPVPDLRRASTRHADTFHSSTLATEHRFDRRRIEYALDALPQTVLRGKGFVELEGEATPALLQLCGSRWTLDPVSTPAPPAGTHLVFIATGGRGVPRFDAPSHFEQALASRDAASADTSNLEHHHHHH', 'not soluble'),
  ('MSEMTKTPTHYRLLSTLKAMGPYLREGQCSERFYLFDCLASCVNDKKSPEKREFWGWWMELTQNEQEMSACYHIGRYTLAGDWVAEAIPESAQAEVNHTQAEFHKKLVKTLRERFEISVTVSTESAPFA', 'not soluble'),
  ('MGSDKIHHHHHHMENKPFIFGVATSGDNFTDREKETERLLLNFQHGVNTVLISPRRWGKTSLVQKACHLAQSDKLKVVYLDIFSCRSDRDFYDAFAAAILKQTSSKLDEWLENTKLFLSRISPKISIGTDPMTDFSISLEMNPQSNDVDEILQLPEKIAQKKGYNIVVCIDEFQQIAEFKDSKTFQKRLRSVWQLQKSVSYCLFGSKKHLMNELFEKKSLPFYKFGDAIYLPKIGTCDWINYICGRFEATGKQISKELAEKICQRVDNHSSYVQQLAWLVWIHTDKVATEQNFEEAYQDIIDQNTPLFEKQTESLTTYQMNFLRAILDGVHSEFTTQEILQKYKLGSSANVSIVKRALVKKELIEIEKRKVIIPDPVMKVWLKKELGGV', 'not soluble'),
  ('SLPGKLALKLDPTILKHLAKNYDVIVITGTNGKTLTTALTVKVLREQYPDILTNPSGSNMKQGIVTTFLRAPKAHQKPLAVLEVDEANVIMVTKYITPKAFVFTNIFRDQMDRYGEIYTTYQKILDGVALAPEATIIANGDLPLFNAKQLPNPILYYGFDYQPDHDQQAPANTDGLLCPRCQHILRYHSRTYSNMGKYYCPHCGFERPQLTYKLNALTAMTPTSSDFEINGQAMHLNIGGQYNIYNALAAYAVGRFMDVTPAKIAHALSDNDEQV', 'not soluble'),
  ('MGTFTLHQGQTNLIKSFFRNYYLNAELELPKDMELREFALQPFGSDTYVRHLSFSSSEELRDYLVNRNLPLHLFYSSARYQLPSARNMEEKAWMGSDLLFDIDADHLCKLRSIRFCPVCGNAVVSEKCERDNVETLEYVEMTSECIKRGLEQTRNLVEILEDDFGLKPKVYFSGNRGFHVQVDCYGNCALLDSDERKEIAEYVMGIGVPGYPGGSENAPGWVGRKNRGINGVTIDEQVTIDVKRLIRIPNSLHGKSGLIVKRVPNLDDFEFNETLSPFTGYTIFLPYITIETEVLGSIIKLNRGIPIKIKSSIGIYLHLRNLGEVKAYVR', 'soluble'),
  ('MAHHHHHHMAYPYNAYLGYTQPPTQYGQPPVVAGAHGHLPVTTPLPYNAQSAYGGAQPPMPTSTGVYAPSARHMNDNQELMEWFRAVDTDGSGAISVPELNAALSSAGVPFSLATTEKLLHMYDKNHSGEITFDEFKDLHHFILSMREGFRKRDSSGDGRLDSNEVRAALLSSGYQVSEQTFQALMRKFDRQRRGSLGFDDYVELSIFVCRVRNVFAFYDRERTGQVTFTFDTFIGGSVSIL', 'soluble'),
  ('MHHHHHHMGLELYLDLLSQPCRAVYIFAKKNDIPFELRIVDLIKGQHLSDAFAQVNPLKKVPALKDGDFTLTESVAILLYLTRKYKVPDYWYPQDLQARARVDEYLAWQHTTLRRSCLRALWHKVMFPVFLGEPVSPQTLAATLAELDVTLQLLEDKFLQNKAFLTGPHISLADLVAITELMHPVGAGCQVFEGRPKLATWRQRVEAAVGEDLFQEAHEVILKAKDFPPADPTIKQKLMPWVLAMIR', 'soluble'),
  ('MGSDKIHHHHHHMNTHNILIIGQGDIGLPVTNKLAQNGVNVTGLARRKRQNYALSDHAKFMQADALTLSPEQLQDFTHIAIIVTPDEYSTSGYHNSYLAINQHLALLADKLSNLQRVVFISSTGVYGQDNGEWIDEDTVPMLPEREASQVILQAEQALQQVFHDRAIIIRPSGIYGRARLMRVRKAKEPQKQPIAAGAWTNRIMDSDLVNIIAKVLTIKAPKPIYIATDYLPVTSFALTTWLSEQLDEALPVLDDKNSVMTGKRLHSNIPLSWLMYPDWQIGYQDILRHQD', 'not soluble');

Here is another sequence to look at.
Field request: soluble on expression in E. coli | item: `GPGSMSRSKEPPLPEELRTRLGQMDGCATAESWESVGNECFSHGCHLSAIRCYTKALEKGSDTANLRSSRSAAYMKSSMFAGPSLALKDAERAAELEPGRCEAHLRVGDAQLARKKYAEAKAAYQKAIELDGSCTAATHALRIVERELFLRSLDEQKKFSPVTEKPSGENTGTTSTGSNAEGPLNMEEEIKKRIQLWAEDTTVREDRTAMRAFNARLDEADRQAGTKYKSELLLKFRGKMAAQEPFRRMVEERRDQEMRMGEGIDYRNADSYRAILTKGTDGVGLGISTDAYKSYKYESKMW`
not soluble
